biological target: HS2ST (Gallus gallus); construct: made in house; host or cells: Escherichia coli Rosetta-gami (DE3), modified pMAL-c2x plasmid; experiment: DSF thermal shift/stability assay of MBP-HS2ST; type: binding, Chicken; conditions: 5 μM MBP-HS2ST; result in words
METRIC: thermal stabilisation of HS2ST (DSF)

Nc1ncnc2c1ncn2[C@@H]1O[C@H](COP(=O)(O)O)[C@@H](O)[C@H]1O [AMP, adenosine 5′-monophosphate]    not

====

target: HS2ST (Gallus gallus, UniProt Q76KB1); construct: made in house; host or cells: Escherichia coli Rosetta-gami (DE3), modified pMAL-c2x plasmid; assay: Microfluidic mobility shift sulfation assay with fluorescent hexasaccharide substrate; assay type: biochemical, Chicken; details: IC50, 20 nM HS2ST, 10 μM PAPS (Figure 3D)
Sequence (Q76KB1 69-356): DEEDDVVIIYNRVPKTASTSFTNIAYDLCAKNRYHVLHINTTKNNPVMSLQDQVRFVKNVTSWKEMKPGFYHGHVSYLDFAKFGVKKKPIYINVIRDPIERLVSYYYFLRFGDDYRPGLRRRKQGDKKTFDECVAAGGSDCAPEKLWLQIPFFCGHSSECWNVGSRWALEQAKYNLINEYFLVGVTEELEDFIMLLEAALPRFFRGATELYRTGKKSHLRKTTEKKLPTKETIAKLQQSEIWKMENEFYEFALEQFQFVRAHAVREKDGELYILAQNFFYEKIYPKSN
METRIC: IC50 (µM)
Give the value, in units of µM, as a plain number.

# get_value(readout='IC50', item= CC(=O)c1c(O)c(C)c(O)c(Cc2c(O)c3c(c(C(=O)/C=C/c4ccccc4)c2O)OC(C)(C)C=C3)c1O [rottlerin] )
6.4
